The values you see were collected from the EternaBench riboswitch data.

Tested on: MS2 coat protein
testDescription: apparent Kd, MS2 coat protein; higher = weaker binding; RNA-MaP array; FMN 200 µM where present
conditionSummary: ligand present: flavin mononucleotide; designed as: ON switch for flavin mononucleotide
readoutType: apparent Kd (nM)
Give the value, in units of nM, as a plain number.

Lab book: apparent Kd of AUAUGAUAGAUAGGAUAUACAGAUAAAUAAUAAGUAGAAGGAUCAAAUGGAAAUUAUACAUGAGGAUCACCCAUGUUUUUGAAU noted as 22.4

Lab book: apparent Kd of GGAGCACGCACAGGAUAUCCGGCGGCGCUCGUCGGAGAAGGGUGACAUGAGGAUCACCCAUGUACGUGCAACCCAGUUUGAGAG noted as 44.8

Lab book: apparent Kd of AAUAAACUCACAGGAUAUAGCAGAGGUCGCGUGUACUUACAGGCGACUAUGCUAGAAGGGUGACCACAUGAGGAUCACCCAUGU noted as 137

Lab book: apparent Kd of GUUGUAUUAAGUUCAUACUAUAUGAUAGAAGGUGAAAGAUAGACAUGAGGAUCACCCAUGUAAUUCAAGGAUAUGUAGUUACUC noted as 20.4

Lab book: apparent Kd of UUGGACGUCGUAGGAUAUGUAGGAUAUUCCUACAUGAGGAUCACCCAUGUUGACAUGGCAGAAGGACAGAAGGACGAUGUCCAU noted as 129

Lab book: apparent Kd of GUAUAUCACUCAGGAUAUCUGUAAUUUGUUGAAACAUGAGGAUCACCCAUGUUCAUGAAUUUAUAGGAGAAGGGAGAGAUAUAC noted as 4.69

Lab book: apparent Kd of CGCGAAAACAUAGGAUAUUGUUACAUGAGGAUCACCCAUGUCAACCAUGUAGCUCGAAUUGUUGUCAAGAAGGAUGAGGUCGCG noted as 22
